# method_notes: Drug uptake in C57BL/6 mouse liver at 60 mg/kg, po after 3 hrs
# Format: ADME, organism-based, C57BL6
# Design: dose 60 mg/kg, route oral
# test_context: read-out: Drug uptake
readout: concentration at 3 h
Kindly report the value followed by its unit.

### Prompt What value of concentration at 3 h has been recorded for this entry: O=C(O)CCc1nc2nc(N3CCC(Oc4cc(F)ccc4Br)CC3)sc2c(=O)[nH]1
### Response 3.3 µM

----------
# method_notes: Drug uptake in C57BL/6 mouse liver at 10 mg/kg, po after 6 hrs
# Assay type: ADME, organism-based, C57BL6
# Parameters: dose 10 mg/kg, route oral
# test_context: read-out: Drug uptake
Items are presented alongside their recorded concentration at 6 h.
Give the value in µM but do not write µM after it.

O=c1[nH]c2cnc(N3CCC(Oc4ccccc4C(F)(F)F)CC3)nc2[nH]1
24.7

Shifting focus to the compound that follows.
### Prompt What value of concentration at 6 h has been recorded for this entry: Cc1nc2nc(N3CCC(Oc4ccccc4C(F)(F)F)CC3)sc2c(=O)[nH]1
### Response 21.8

----------
# method_notes: Ratio of drug uptake in liver to skin in C57BL/6 mouse liver at 10 mg/kg, po after 6 hrs
# Format: ADME, organism-based, C57BL6
# Set-up: dose 10 mg/kg, route oral
# test_context: in vivo
readout: Ratio
# respond with the number and nothing more

Examples with answers:
Cc1nc2nc(N3CCC(Oc4ccccc4C(F)(F)F)CC3)sc2c(=O)[nH]1
7
O=C(O)CNc1nc2cnc(N3CCC(Oc4cc(F)ccc4Br)CC3)nc2s1
145

### Prompt What value of Ratio has been recorded for this entry: O=C(O)CCc1nc2nc(N3CCC(Oc4cc(F)ccc4Br)CC3)sc2c(=O)[nH]1
### Response 22

### Prompt Another: O=c1[nH]c2cnc(N3CCC(Oc4ccccc4C(F)(F)F)CC3)nc2[nH]1
### Response 4.4

### Prompt Another: O=C(O)COc1nc2cnc(N3CCC(Oc4cc(F)ccc4Br)CC3)nc2s1
### Response 403

----------
# method_notes: AUC (0 to 24 hrs) in C57BL/6 mouse at 10 mg/kg, po
# Assay type: ADME, organism-based, C57BL6
# Parameters: time < 24 hr, dose 10 mg/kg, route oral
# test_context: whole blood
readout: AUC(0-t) at 24 h (µM·h)
Give the value in µM·h but do not write µM·h after it.

NC(=O)c1cnc(N2CCN(C(=O)c3ccccc3C(F)(F)F)CC2)s1
11

Shifting focus to the compound that follows.
### Prompt What value of AUC(0-t) at 24 h has been recorded for this entry: Cc1nc2nc(N3CCC(Oc4ccccc4C(F)(F)F)CC3)sc2c(=O)[nH]1
### Response 30

----------
# method_notes: Ratio of drug uptake in liver to adipose tissue in C57BL/6 mouse at 10 mg/kg, po after 6 hrs
# Format: ADME, organism-based, C57BL6
# Design: dose 10 mg/kg, route oral
# test_context: in vivo
Items are presented alongside their recorded Ratio.
# respond with the number and nothing more

Examples with answers:
O=C(O)CNc1nc2cnc(N3CCC(Oc4cc(F)ccc4Br)CC3)nc2s1
41
O=c1[nH]c2cnc(N3CCC(Oc4ccccc4C(F)(F)F)CC3)nc2[nH]1
3.6
O=C(O)COc1nc2cnc(N3CCC(Oc4cc(F)ccc4Br)CC3)nc2s1
173

Shifting focus to the compound that follows.
### Prompt What value of Ratio has been recorded for this entry: O=C(O)CCc1nc2nc(N3CCC(Oc4cc(F)ccc4Br)CC3)sc2c(=O)[nH]1
### Response 31
